# Test system: biotinyl-Val-oxazolone
# assay_details: self-aminoacylation, catalytic enhancement (BVO) (fold over background); higher = more active; k-Seq, kA / k0A0; sequences stand for … in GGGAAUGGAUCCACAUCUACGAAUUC…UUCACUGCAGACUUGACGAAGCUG
Variants at the floor of the assay were thinned out.
Answer N if self-aminoacylation is under 1, and Y if it is 1 or more.

CCACACUACAAGCAUUCGGUC [Fam1B.1 aminoacylation ribozyme variant] ... Y
CUACUAGAAACAAUCGGUCUG [Fam1A.1 aminoacylation ribozyme variant] ... N
CCACACUUCAAGCAAGCUGUC [Fam1B.1 aminoacylation ribozyme variant] ... N

Let us examine a further case.
**Query** Can AUGUUUGCUAAUAGUCGAAAG [Fam3.1 aminoacylation ribozyme variant] be said to have self-aminoacylation at or above 1?
**Result** Y
